Where these numbers come from: ChEMBL document CHEMBL1961873

biological target: Tyrosine-protein kinase receptor TYRO3 (Homo sapiens) (UniProt Q06418); details: at 0.1 µM;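 note: reported percentages are averaged inhibition values of TYRO3 kinase activity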
Sequence (Q06418 whole entry): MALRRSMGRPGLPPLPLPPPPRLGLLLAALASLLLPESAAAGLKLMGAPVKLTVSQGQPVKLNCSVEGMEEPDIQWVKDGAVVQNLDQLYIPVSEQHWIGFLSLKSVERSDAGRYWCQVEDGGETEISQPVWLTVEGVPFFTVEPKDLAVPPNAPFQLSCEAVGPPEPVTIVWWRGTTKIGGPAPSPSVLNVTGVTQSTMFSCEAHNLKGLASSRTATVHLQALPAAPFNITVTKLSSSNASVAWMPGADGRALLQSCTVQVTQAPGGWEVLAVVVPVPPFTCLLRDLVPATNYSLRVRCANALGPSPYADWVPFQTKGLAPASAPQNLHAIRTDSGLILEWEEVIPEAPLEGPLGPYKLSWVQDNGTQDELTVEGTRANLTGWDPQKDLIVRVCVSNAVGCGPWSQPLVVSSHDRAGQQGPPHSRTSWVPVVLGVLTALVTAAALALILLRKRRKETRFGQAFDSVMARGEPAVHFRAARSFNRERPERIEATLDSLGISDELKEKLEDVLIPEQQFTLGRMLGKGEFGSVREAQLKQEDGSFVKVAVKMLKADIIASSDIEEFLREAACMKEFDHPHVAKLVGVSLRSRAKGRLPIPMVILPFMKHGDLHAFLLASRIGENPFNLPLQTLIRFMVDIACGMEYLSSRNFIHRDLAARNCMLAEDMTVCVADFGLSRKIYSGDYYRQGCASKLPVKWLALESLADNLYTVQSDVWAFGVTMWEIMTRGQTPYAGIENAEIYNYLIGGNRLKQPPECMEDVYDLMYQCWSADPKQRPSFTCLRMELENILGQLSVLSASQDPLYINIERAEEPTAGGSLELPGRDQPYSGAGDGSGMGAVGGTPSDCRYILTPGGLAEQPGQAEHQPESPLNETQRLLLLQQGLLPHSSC
measured_parameter: inhibition (%)
I only need the number, in %, no unit after it.

NS(=O)(=O)c1ccc(-c2cc3ccncc3cc2OCc2ccccc2)cc1 ... 3.82

Provide measured inhibition value, entry: "CN(C)CCCn1c(-c2nonc2N)nc2cnccc21"
1.74

Identify the reported inhibition for the following entry. "O=C1Nc2ccc(-c3cccnc3)cc2C1=Cc1cc(Br)c(O)c(Br)c1"
3.07

Hello, please tell me recorded inhibition for this one: "O=C1Nc2ccccc2/C1=C/Nc1ccc2[nH]c(=O)[nH]c2c1"
5.57

Item "FC(F)(F)c1ccc(-c2nn3ncccc3c2-c2ccnc(Nc3ccc4c(c3)OCCO4)n2)cc1" : provide inhibition
1.27

Return inhibition for the following compound: "COc1cccc(-n2ncc3c(N/N=C/c4ccc(S(C)(=O)=O)cc4)ncnc32)c1"
10.6

Report inhibition for "Nc1nccc(-c2c(-c3ccc(F)cc3)nn3cc(C(F)(F)F)ccc23)n1"
0.03

For the compound "CN(c1ccc(NC(=O)Nc2ccc(OC(F)(F)F)cc2)cc1)c1ccnc(Nc2cccc(S(N)(=O)=O)c2)n1" , give its measured inhibition value.
3.15

Dear colleague, please send me the reported inhibition for "COC(=O)c1ccc2c(c1)C(=Cc1cc(Br)c(O)c(Br)c1)C(=O)N2" when you can.
2.46

Answer with the recorded inhibition of "COc1cc(Nc2nccc(-c3cnn4ncccc34)n2)cc(OC)c1" only.
1.77
